Tested on: SNK-6 (IL-2 2.5 ng/mL);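 also: normalised to DMSO-only wells as negative and benzethonium chloride as positive control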
assay-info: percent inhibition of viability; higher = more inhibition
reported-conditions: 72 h; 0.1 nM
reported-endpoint: percent inhibition of viability (%)
Quick note: give the figure in %, leave out the unit.

{"columns": ["compound", "percent inhibition of viability, %"],
 "data": [
  ["Cn1ncnc1[C@H]1c2n[nH]c(=O)c3cc(F)cc(c23)N[C@@H]1c1ccc(F)cc1 [Talazoparib] (max concentration tested 1000 nM)", 1.83],
  ["NC(=O)c1cccc(-c2cccc(OC(=O)NC3CCCCC3)c2)c1 [URB597] (max concentration tested 1000 nM)", -7.3],
  ["C[C@]12O[C@H](C[C@]1(O)CO)n1c3ccccc3c3c4c(c5c6ccccc6n2c5c31)CNC4=O [Lestaurtinib] (max concentration tested 1000 nM)", 0.62]
]}

Query block: Please report the recorded percent inhibition of viability for O=C1NC(=O)[C@@H](c2cn3c4c(cccc24)CCC3)[C@@H]1c1c[nH]c2ccccc12 [Tivantinib] (max concentration tested 1000 nM) .
Result block: 9.19
